- Experimental target: α5-GABAA receptor (Homo sapiens, UniProt P18507+P31644)
- Construct: expressed in transfected cells; host or cells: HEK293, monoclonal stably transfected line
- Sequence (P31644 32-462): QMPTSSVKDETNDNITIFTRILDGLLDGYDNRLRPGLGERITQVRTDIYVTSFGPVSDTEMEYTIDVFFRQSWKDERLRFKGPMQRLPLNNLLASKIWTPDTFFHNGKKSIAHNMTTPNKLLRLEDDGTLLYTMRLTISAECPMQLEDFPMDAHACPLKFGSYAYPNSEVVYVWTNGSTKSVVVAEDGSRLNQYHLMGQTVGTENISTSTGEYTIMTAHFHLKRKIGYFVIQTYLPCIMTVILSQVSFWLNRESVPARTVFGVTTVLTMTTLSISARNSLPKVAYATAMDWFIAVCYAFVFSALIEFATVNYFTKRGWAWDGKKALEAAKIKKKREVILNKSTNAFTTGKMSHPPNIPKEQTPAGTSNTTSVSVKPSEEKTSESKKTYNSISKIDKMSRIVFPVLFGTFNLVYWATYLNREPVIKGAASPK
- Sequence (P28472 26-473 partner): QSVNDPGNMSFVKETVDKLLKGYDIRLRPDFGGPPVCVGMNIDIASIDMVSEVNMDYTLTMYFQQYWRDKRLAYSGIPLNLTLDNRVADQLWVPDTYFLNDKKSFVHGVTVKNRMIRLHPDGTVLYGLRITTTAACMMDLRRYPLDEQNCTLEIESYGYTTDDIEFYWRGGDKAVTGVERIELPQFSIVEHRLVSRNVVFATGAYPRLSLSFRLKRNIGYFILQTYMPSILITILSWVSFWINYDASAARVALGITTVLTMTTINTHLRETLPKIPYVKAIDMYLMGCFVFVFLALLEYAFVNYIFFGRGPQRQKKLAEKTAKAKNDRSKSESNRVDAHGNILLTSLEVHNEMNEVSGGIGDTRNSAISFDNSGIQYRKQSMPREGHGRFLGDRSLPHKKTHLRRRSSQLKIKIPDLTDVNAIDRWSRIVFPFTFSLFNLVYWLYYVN
- Sequence (P18507 40-467 isoform P18507-1 limits assumed): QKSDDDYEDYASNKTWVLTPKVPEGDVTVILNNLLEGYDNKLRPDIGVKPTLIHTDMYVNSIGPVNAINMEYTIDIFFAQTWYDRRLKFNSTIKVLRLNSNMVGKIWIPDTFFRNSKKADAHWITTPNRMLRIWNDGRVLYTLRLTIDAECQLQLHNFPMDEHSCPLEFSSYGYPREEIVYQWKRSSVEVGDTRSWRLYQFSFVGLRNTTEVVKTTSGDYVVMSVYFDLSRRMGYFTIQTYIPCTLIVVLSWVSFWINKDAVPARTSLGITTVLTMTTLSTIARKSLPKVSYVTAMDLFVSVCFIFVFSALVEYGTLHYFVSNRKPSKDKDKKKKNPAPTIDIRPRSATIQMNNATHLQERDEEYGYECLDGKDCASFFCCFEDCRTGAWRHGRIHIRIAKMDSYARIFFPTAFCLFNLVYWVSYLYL
- Method: Cell-level screening: whole cell patch clamp, inverse agonist efficacy on α5-GABAA receptor expressed in HEK293
- Format: cell-based
- Measurement context: drug 100 nM, GABA 0.05 μM, HEK293 expressing α5, β3 and γ2 subunits, clamped at −60 mV; read-out: Compound inverse agonist efficacy %
Readout name: inhibition at 0.1 µM (%)

Some entries whose results are on file:
{"Molecule": "CCS(=O)(=O)N1CCc2nc(COc3nn4c(-c5cc(C)on5)nnc4cc3OC)ccc2C1", "Assay value": 43.4}
{"Molecule": "COc1cc2nnc(-c3cc(C)on3)n2nc1OCc1cccc(C2CCNCC2)n1", "Assay value": 38.3}
{"Molecule": "CCn1nc2ccc(COc3nn4c(-c5cc(C)on5)nnc4cc3OC)nc2c1C", "Assay value": 75.1}
{"Molecule": "COc1cc2nnc(-c3cc(C)on3)n2nc1OCc1cccc(F)n1", "Assay value": 40.8}
{"Molecule": "COc1cc2nnc(-c3cc(C)on3)n2nc1OCc1ccc2c(n1)CNC2=O", "Assay value": 47.2}
{"Molecule": "COc1cc2nnc(-c3cc(CO)on3)n2nc1OCc1ccccn1", "Assay value": 48.7}

a = COc1cc2nnc(-c3cc(C)on3)n2nc1OCc1ccn2nccc2n1
b = COCCN1Cc2nc(COc3nn4c(-c5cc(C)on5)nnc4cc3OC)ccc2C1=O
In: # min-compare on inhibition at 0.1 µM between a and b // respond with label for picked entry
Out: a

a = COc1cc2nnc(-c3cc(C)on3)n2nc1OCc1ccc2nnc(C)n2n1
b = CCN1Cc2ccc(COc3nn4c(-c5cc(C)on5)nnc4cc3OC)nc2C1=O
In: I need your help: which of the pair a , b has higher inhibition at 0.1 µM? // respond with label for picked entry
Out: a
(a: 52.1%, b: 35.3%)

I = COc1cc2nnc(-c3cc(C)on3)n2nc1OCc1ccc(OC2CCOCC2)nn1
II = COc1cc2nnc(-c3cc(C)on3)n2nc1OCc1ccc2c(n1)CCN(CCC#N)C2
In: # min-compare on inhibition at 0.1 µM between I and II // respond with label for picked entry
Out: I

I = COc1cc2nnc(-c3cc(C)on3)n2nc1OCc1ccc2c(n1)CCN(C1CN(C(=O)C3CC3)C1)C2
II = COc1cc2nnc(-c3cc(C)on3)n2nc1OCc1cccc(C2CCNC2)n1 (stereo not shown)
In: # min-compare on inhibition at 0.1 µM between I and II // respond with label for picked entry
Out: II

P = COc1cc2nnc(-c3cc(C)on3)n2nc1OCc1ccc2c(n1)CN(C(C)C)C2
Q = CCn1ccc2nc(COc3nn4c(-c5cc(C)on5)nnc4cc3OC)ccc2c1=O
In: # min-compare on inhibition at 0.1 µM between P and Q // respond with label for picked entry
Out: P
(P: 47.3%, Q: 69.6%)

###

- Method: Thermodynamic solubility in simulated intestinal fluid (TS in FaSSIF)
- Type: physicochemical
- Measurement context: thermodynamic from solid, 37° C.
- Procedure: Simulated intestinal fluid FaSSIF: 54.76 mg of FaSSIF-V2 (Biorelevant, batch. V2FAS-0619-A, lot. V2FAS01) was weighed and added to 15 mL of a buffer solution. After dissolving, the solution was supplemented to 30 mL, and put at room temperature for 1 hour before use. […] Thermodynamic solubility in intestinal fluid (TS in FaSSIF) was simulated. […] The filtrate was detected by high performance liquid chromatograph (UV).
Readout name: solubility thermodynamic at 4 h (µg/mL)

Some entries whose results are on file:
{"Compound": "COc1cc2nnc(-c3cc(C)on3)n2nc1OCc1nccc(OC)c1OC", "Output unit": "µg/mL", "solubility thermodynamic at 4 h": 37.8}
{"Compound": "COCCCOc1ccnc(COc2nn3c(-c4cc(C)on4)nnc3cc2OC)c1", "Output unit": "µg/mL", "solubility thermodynamic at 4 h": 38}
{"Compound": "COc1cc2nnc(-c3cc(C)on3)n2nc1OCc1ccc2c(n1)CCN(CC(=O)N1CCCC1)C2", "Output unit": "µg/mL", "solubility thermodynamic at 4 h": 75.8}
{"Compound": "COc1cc2nnc(-c3cc(C)on3)n2nc1OCc1ccc2c(n1)CCN(C1CN(C(=O)C3CC3)C1)C2", "Output unit": "µg/mL", "solubility thermodynamic at 4 h": 204}
{"Compound": "COCCn1ccc2nc(COc3nn4c(-c5noc(C)n5)nnc4cc3OC)ccc2c1=O", "Output unit": "µg/mL", "solubility thermodynamic at 4 h": 30.9}

P = COc1cc2nnc(-c3cc(C)on3)n2nc1OCc1ccc(C2(F)CN(C)C2)cn1
Q = COc1cc2nnc(-c3cc(C)on3)n2nc1OCc1ccc2c(n1)CCN(C1COC1)C2
R = COCCOc1ccc(COc2nn3c(-c4cc(C)on4)nnc3cc2OC)nc1
S = COc1cc2nnc(-c3cc(C)on3)n2nc1OCc1ccc(=O)n(CCCC#N)n1
In: Please order the records by their reported solubility thermodynamic at 4 h, lowest number first. Give the labels in the order specified.
Out: R, S, Q, P

###

- Experimental target: α5-GABAA receptor (Homo sapiens, UniProt P18507+P31644)
- Construct: expressed in transfected cells; host or cells: HEK293, monoclonal stably transfected line
- Method: Cell-level screening: whole cell patch clamp, inverse agonist efficacy on α5-GABAA receptor expressed in HEK293
- Format: cell-based
- Measurement context: drug 100 nM, GABA 0.05 μM, HEK293 expressing α5, β3 and γ2 subunits, clamped at −60 mV; read-out: Compound inverse agonist efficacy %
Readout name: inhibition at 0.1 µM (%)

{"Compound": "COc1cc2nnc(-c3cc(C)on3)n2nc1OCc1ccnc2ccnn12", "Readout name": "inhibition at 0.1 µM", "Output unit": "%", "Assay value": 55.4}
{"Compound": "COc1cccnc1COc1nn2c(-c3cc(C)on3)nnc2cc1OC", "Readout name": "inhibition at 0.1 µM", "Output unit": "%", "Assay value": 38}
{"Compound": "COc1cc2nnc(-c3cc(C)on3)n2nc1OCc1ccc(S(C)(=O)=O)cn1", "Readout name": "inhibition at 0.1 µM", "Output unit": "%", "Assay value": 48.8}
{"Compound": "COc1cc2nnc(-c3cc(C)on3)n2nc1OCc1ncccc1Cl", "Readout name": "inhibition at 0.1 µM", "Output unit": "%", "Assay value": 47.7}
{"Compound": "COc1cc2nnc(-c3cc(C)on3)n2nc1OCc1ccc2nn(CCc3ccccc3)cc2n1", "Readout name": "inhibition at 0.1 µM", "Output unit": "%", "Assay value": 57.2}
{"Compound": "COc1cc2nnc(-c3cc(C)on3)n2nc1OCc1ccc2c(n1)CCN(CCC#N)C2=O", "Readout name": "inhibition at 0.1 µM", "Output unit": "%", "Assay value": 47.8}
{"Compound": "COCCN1CCc2nc(COc3nn4c(-c5cc(C)on5)nnc4cc3OC)ccc2C1", "Readout name": "inhibition at 0.1 µM", "Output unit": "%", "Assay value": 47.2}
{"Compound": "COc1cc2nnc(-c3cc(C)on3)n2nc1OCc1ccc(C2CCCN2)cn1 (stereo not drawn)", "Readout name": "inhibition at 0.1 µM", "Output unit": "%", "Assay value": 50}
{"Compound": "COc1cnnc(COc2nn3c(-c4cc(C)on4)nnc3cc2OC)c1", "Readout name": "inhibition at 0.1 µM", "Output unit": "%", "Assay value": 37.2}
{"Compound": "CCOCCCOc1ccc(COc2nn3c(-c4cc(C)on4)nnc3cc2OC)nn1", "Readout name": "inhibition at 0.1 µM", "Output unit": "%", "Assay value": 37.5}
{"Compound": "COc1cc2nnc(-c3cc(C)on3)n2nc1OCc1ccc2c(n1)CCN(C(=O)N(C)C)C2", "Readout name": "inhibition at 0.1 µM", "Output unit": "%", "Assay value": 63.6}
{"Compound": "COCCCOc1ccc(COc2nn3c(-c4cc(C)on4)nnc3cc2OC)nc1", "Readout name": "inhibition at 0.1 µM", "Output unit": "%", "Assay value": 40.6}
{"Compound": "COc1cc2nnc(-c3cc(C)on3)n2nc1OCc1ccc2c(n1)CCN(CC1CC1)C2", "Readout name": "inhibition at 0.1 µM", "Output unit": "%", "Assay value": 47.9}
{"Compound": "COc1cc2nnc(-c3cc(C)on3)n2nc1OCc1ccc(OCCCC#N)cn1", "Readout name": "inhibition at 0.1 µM", "Output unit": "%", "Assay value": 57.8}
{"Compound": "COc1cc2nnc(-c3cc(C)on3)n2nc1OCc1ccc2c(n1)CN(CCCC#N)C2", "Readout name": "inhibition at 0.1 µM", "Output unit": "%", "Assay value": 50}
